I'd appreciate it if you could supply residual activity values for the items below.
- measurement-target: NEK2 (human)
- test-summary: radiometric filter-binding kinase assay, Kinase HotSpot
- condition: compound 0.5 µM; ATP 10 µM
One number for each entry, in %.

O=C1NC(=O)/C(=C\c2ccc3nccnc3c2)S1: 92.2
CN(C)C[C@H]1CCn2c(c(C3=C(c4cn(C)c5ccccc45)C(=O)NC3=O)c3ccccc32)C1: 106
O=C1Nc2ccccc2/C1=C1/Nc2ccccc2/C1=N\OCCC(O)CO (stereo not given): 114
O=C(O)/C=C/c1cc(Br)c(Br)c(Br)c1Br: 92
CC(=O)O/N=C1\C(=C2\C(=O)Nc3cc(Br)ccc32)Nc2ccccc21: 73.9

Each of the following entries comes with a recorded value; kindly state residual activity for each.
1. Cn1sc(=O)n(Cc2ccccc2)c1=O
2. COc1cc2ncnc(N3CCN(C(=O)Nc4ccc(Oc5ccccc5)cc4)CC3)c2cc1OC
3. O=C1NC(=O)C(c2c[nH]c3ccccc23)=C1c1c[nH]c2ccccc12
4. O=C(CCCc1ccc(-c2ccccc2F)cc1)Nc1ccc(O)cc1
5. COc1cc2ncc(-c3ccccc3)nc2cc1OC

OUT:
1: 99.7; 2: 81.3; 3: 102; 4: 90.6; 5: 85.3

---

- measurement-target: LIMK1 (human) (UniProt P53667)
- Sequence (P53667 whole entry, looked up): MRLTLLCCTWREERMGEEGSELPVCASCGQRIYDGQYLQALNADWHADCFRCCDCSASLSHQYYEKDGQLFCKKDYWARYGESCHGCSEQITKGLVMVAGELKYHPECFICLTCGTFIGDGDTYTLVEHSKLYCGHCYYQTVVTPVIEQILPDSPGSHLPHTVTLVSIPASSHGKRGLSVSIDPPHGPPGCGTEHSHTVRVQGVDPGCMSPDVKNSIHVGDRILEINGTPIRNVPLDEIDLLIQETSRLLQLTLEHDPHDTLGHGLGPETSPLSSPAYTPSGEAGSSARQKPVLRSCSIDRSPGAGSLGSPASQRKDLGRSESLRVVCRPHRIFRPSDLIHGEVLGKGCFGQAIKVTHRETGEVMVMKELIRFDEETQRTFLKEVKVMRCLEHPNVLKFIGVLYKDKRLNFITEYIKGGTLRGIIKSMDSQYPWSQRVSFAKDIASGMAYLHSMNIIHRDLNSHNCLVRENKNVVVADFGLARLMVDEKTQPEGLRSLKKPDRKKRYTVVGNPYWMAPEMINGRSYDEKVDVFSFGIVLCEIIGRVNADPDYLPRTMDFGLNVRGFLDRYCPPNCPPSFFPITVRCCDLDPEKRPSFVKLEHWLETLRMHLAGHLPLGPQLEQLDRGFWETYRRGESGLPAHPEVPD
- test-summary: radiometric filter-binding kinase assay, Kinase HotSpot
- condition: compound 0.5 µM; ATP 10 µM
Task for the reader: assign each of the following compounds its reported residual activity.
Give bare numbers, in %.

Consider the reported residual activity for these compounds:
O=C1Nc2ccccc2/C1=C1\Nc2ccccc2\C1=N/O: 65.9
O=C1NC(=O)C(c2cn(CCCO)c3ncccc23)=C1c1cnccn1: 96.4
COc1cc2ncc(-c3ccccc3)nc2cc1OC: 77.7
Nc1nccc(-c2c(-c3ccc(F)cc3)ncn2C2CCNCC2)n1: 89.6

Here are 5 compounds. What values of residual activity were reported for them?
1. Cc1nc2cc3nc(-c4cccs4)cnc3cc2n1C
2. Oc1ccc(Nc2nc(-c3ccc(Cl)cc3)cs2)cc1
3. O=C1NC(=O)C(c2c[nH]c3ccccc23)=C1c1c[nH]c2ccccc12
4. COc1ccc(OC)c2c(=S)c3ccccc3[nH]c12
5. CC(C)c1nn(-c2c(Cl)cccc2Cl)c2nc(Cc3ccc(OCCO)cc3)nc(O)c12

OUT:
1. 112
2. 90.5
3. 103
4. 108
5. 107

Please state, for each entry, its recorded residual activity.
1. O=C(Nc1cccc(Nc2cc(Nc3cccc(C(F)(F)F)c3)ncn2)c1)C1CC1
2. O=C1Cc2c([nH]c3ccc(Br)cc23)-c2ccccc2N1
3. Cn1sc(=O)n(Cc2ccccc2)c1=O
4. CCn1cnc2c(Nc3cccc(Cl)c3)nc(N[C@@H]3CCCC[C@@H]3N)nc21
5. O=C(O)/C=C/c1cc(Br)c(Br)c(Br)c1Br
6. O=C1NC(=O)/C(=C\c2ccc3nccnc3c2)S1

OUT:
[95.9, 99.2, 101, 108, 101, 87.4]

Could you tell me residual activity for each of these compounds? They are listed below.
1. O=C(CCCc1ccc(-c2ccccc2F)cc1)Nc1ccc(O)cc1
2. CN([C@@H](Cc1ccc(OS(=O)(=O)c2cccc3cnccc23)cc1)C(=O)N1CCN(c2ccccc2)CC1)S(=O)(=O)c1cccc2cnccc12
3. O=C1Nc2ccccc2/C1=C1/Nc2ccccc2/C1=N\OCCC(O)CO (stereo unspecified)
4. CC(C)[C@H](CO)Nc1nc(Nc2cc(N)cc(Cl)c2)c2ncn(C(C)C)c2n1
5. CC(=O)O/N=C1\C(=C2\C(=O)Nc3cc(Br)ccc32)Nc2ccccc21
6. COc1ccc(CNC(=O)Nc2ncc([N+](=O)[O-])s2)cc1

OUT:
[106, 104, 39.5, 107, 69.7, 96]

Numbers sourced from the kinase profiling compilation of Christmann-Franck et al. (2016).
